# Test system: NCI-H292 lung cancer cells
# experiment-notes: FDA drug screening, complete media vs cholesterol-free media with simvastatin (TABLE 2)
# Format: cell-based, human
# measurement-setup: NCI-H292 cells, FDA drug library screen, cholesterol-free media with simvastatin 0.04 μM
Counter-ions that a name gives are not always drawn.
Below, each of the molecules is paired with its reported Cholesterol-free media + simvastatin (0.04 μM) value.
Field format: numeric only.

The following molecules have reported results that may help.
                                   molecule                      system  result
0  CN1CC(O)C2=C/C(=N/NC(N)=O)C(=O)C=C21 (stereo not shown)  NCI-H292 lung cancer cells   1.082
1  CC(C)(C)c1ccc(C(=O)CCCN2CCC(OC(c3ccccc3)c3ccccc3)CC2)cc1  NCI-H292 lung cancer cells  0.2638
2  CC(=O)OCC(=O)[C@@]1(O)CC[C@H]2[C@@H]3CCC4=CC(=O)C=C[C@]4(C)[C@H]3[C@@H](O)C[C@@]21C [Prednisolone acetate]  NCI-H292 lung cancer cells  0.7463
3  C=C1CC[C@@H]2[C@](C)(CO)[C@H](O)CC[C@@]2(C)[C@@H]1C/C=C1/C(=O)OC[C@H]1O [Andrographolide]  NCI-H292 lung cancer cells   1.859
4    O=C1CCc2cc(OCCCCc3nnnn3C3CCCCC3)ccc2N1  NCI-H292 lung cancer cells  0.8234

Find the measured Cholesterol-free media + simvastatin (0.04 μM) of CC(C)c1c(C(=O)Nc2ccccc2)c(-c2ccccc2)c(-c2ccc(F)cc2)n1CC[C@@H](O)C[C@@H](O)CC(=O)O [Atorvastatin (hemicalcium salt)] and report it.
0.4555

For C[C@H](Cn1cnc2c(N)ncnc21)OCP(=O)(O)O , write its Cholesterol-free media + simvastatin (0.04 μM).
0.8374
